# tested system: tetanus neurotoxin (TeNT), authentic tetanus holotoxin (Clostridium tetani, UniProt P04958 2-1315)
# Sequence (P04958 2-457 limits assumed, chain 1 of 2): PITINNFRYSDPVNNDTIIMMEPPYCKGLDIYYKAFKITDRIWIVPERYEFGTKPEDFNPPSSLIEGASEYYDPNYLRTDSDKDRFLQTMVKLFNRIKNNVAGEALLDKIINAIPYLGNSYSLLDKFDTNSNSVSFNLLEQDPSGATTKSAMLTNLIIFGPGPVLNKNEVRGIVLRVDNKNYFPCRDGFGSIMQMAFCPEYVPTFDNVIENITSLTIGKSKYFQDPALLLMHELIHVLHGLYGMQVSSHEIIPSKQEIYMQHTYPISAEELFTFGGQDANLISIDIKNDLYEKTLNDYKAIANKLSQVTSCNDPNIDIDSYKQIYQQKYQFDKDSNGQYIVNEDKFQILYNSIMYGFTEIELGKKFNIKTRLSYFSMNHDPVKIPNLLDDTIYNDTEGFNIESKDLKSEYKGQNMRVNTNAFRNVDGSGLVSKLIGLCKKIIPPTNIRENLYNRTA
# Sequence (P04958 458-1315 limits assumed, chain 2 of 2): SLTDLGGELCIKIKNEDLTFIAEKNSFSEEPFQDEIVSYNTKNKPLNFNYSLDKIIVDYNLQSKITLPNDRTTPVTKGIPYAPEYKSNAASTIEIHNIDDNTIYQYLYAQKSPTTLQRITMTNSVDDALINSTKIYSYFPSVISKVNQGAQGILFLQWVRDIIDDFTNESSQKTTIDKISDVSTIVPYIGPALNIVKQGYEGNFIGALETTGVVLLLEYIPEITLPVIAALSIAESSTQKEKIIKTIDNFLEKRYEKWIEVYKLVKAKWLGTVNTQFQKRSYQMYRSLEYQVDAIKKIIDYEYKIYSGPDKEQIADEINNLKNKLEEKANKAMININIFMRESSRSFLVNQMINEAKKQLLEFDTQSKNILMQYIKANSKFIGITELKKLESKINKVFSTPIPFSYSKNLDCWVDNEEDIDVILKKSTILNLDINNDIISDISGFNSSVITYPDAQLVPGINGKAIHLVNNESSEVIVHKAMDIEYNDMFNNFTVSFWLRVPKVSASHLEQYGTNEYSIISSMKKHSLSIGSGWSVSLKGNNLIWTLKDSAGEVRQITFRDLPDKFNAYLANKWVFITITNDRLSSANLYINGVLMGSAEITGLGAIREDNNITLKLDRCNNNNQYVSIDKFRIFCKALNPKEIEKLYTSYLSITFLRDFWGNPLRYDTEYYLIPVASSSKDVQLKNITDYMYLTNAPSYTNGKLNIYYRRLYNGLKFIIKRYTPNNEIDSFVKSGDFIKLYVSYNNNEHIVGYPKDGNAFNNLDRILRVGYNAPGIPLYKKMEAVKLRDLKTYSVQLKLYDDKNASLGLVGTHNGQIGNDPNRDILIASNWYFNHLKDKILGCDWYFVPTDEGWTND
# assay comment: ELISA, TeNT captured with cAb-TT2, unlabelled binder
attribute measured: maximal absorbance at 450 nm
Respond with the number and no other words.

// worked examples, maximal absorbance at 450 nm included
binder	maximal absorbance at 450 nm
SVT29L (VHH) VHH: QVQLQESGGGLVQTGGSLTLSCRAYGRAFDNYHFGWFRQAPGKDREFVASISWKGGSTYRANFALGRFTSSVNRGESSVYLHMSGLTPEDTATYYCAAHDGGDWNYHTGMDYWGKGILVTVSS	0.429
SVT16L (VHH) VHH: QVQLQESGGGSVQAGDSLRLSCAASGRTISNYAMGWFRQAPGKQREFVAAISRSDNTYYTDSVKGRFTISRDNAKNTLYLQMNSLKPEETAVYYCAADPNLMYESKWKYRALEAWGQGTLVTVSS	0.363
SVT08L (VHH) VHH: QVQLQESGGGSVQAGGSLRLSCTASEFSYNDYTIAWFRRAAGKGRVEDGEGVASITTSYDRAYDNRIHYGDSVKGRFTISRDNAKNTVYLQMTNLNPSDTAVYYCGLDITPPGGIGASLTEGFLFDYWGQGTQVTVSS	0.36
SVT15L (VHH) VHH: QVQLQESGGGLVQTGGSLRLSCRASGRAFANYHFGWFRQAPGKDREFVASISWKGGSTYYANFALGRFTSSVDRAESSVYLQMSGLTPEDTATYYCAAHDGGDWNYHTGMDYWGKGILVTVSS	0.477
SVT34L (VHH) VHH: QVQLQESGGGLVQPGGSLRLSCAASGRTISSYAMGWFRQAPGKQREFVAAISRSGGNTYYTDSVKGRFIISRDNAKNTLYLQMNNLKPEETAVYYCAADPNLMYESKWKYRALEAWGQGTLVTVSS	0.335

Form: binder = SVT25L (VHH) VHH: QVQLQESGGGLVQAGGSLRLSCAASGRTISVYAMGWFRQAPGKQREFVAAISRSDNTYYTDSVKGRFTISRDNVKNTLYLQMNSLKPEETAVYYCAADPNLMYETKWKYRALEAWGQGTLVTVSS ; maximal absorbance at 450 nm = 0.362

Form: binder = SVT05L (VHH) VHH: QVQLQESGGGLVQPGGSLRLSCSASGFSFTDDYGIGWFRSGPGKGREAVAPIADREAVAAIALSDGNTYYSASAKGRFTISRDNAKSTAYLQMNNLKPEDTATYYCAADFWGYGMSWPMATLWEYWGQGIQVTVSS ; maximal absorbance at 450 nm = 0.375

src = patent US20240376185A1
